Molecular target: T1, mouse CTGF (antigen of the Biacore assay) (mouse, UniProt P29268 26-348)
T1 construct: also called mouse CTGF protein
T1 sequence (looked up): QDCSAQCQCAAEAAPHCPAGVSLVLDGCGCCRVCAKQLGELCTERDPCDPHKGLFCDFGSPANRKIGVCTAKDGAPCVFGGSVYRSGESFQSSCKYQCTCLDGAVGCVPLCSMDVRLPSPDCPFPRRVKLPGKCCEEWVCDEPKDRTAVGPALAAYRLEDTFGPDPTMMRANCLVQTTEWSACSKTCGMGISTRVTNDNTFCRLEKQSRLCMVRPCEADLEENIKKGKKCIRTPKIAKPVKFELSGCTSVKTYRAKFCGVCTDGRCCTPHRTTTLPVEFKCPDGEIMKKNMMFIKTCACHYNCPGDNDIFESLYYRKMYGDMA
Experiment: Biacore, antibody captured on Protein A, mouse CTGF in flow, 1:1 fit
Each record is given 1 if its reported koff is strictly below 0.03 s⁻¹. Records at or above 0.03 s⁻¹ are given 0.

INPUT: Just wondering, is koff of Hu147-13wk (antibody, human IgG1, kappa, V domains shown) VH: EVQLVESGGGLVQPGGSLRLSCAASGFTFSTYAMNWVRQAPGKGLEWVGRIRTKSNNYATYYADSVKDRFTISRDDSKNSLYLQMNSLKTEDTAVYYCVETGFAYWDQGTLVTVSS VL: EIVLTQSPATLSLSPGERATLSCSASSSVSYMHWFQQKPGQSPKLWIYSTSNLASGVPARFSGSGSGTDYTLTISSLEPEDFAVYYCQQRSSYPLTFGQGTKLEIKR below 0.03 s⁻¹?
OUTPUT: 0

INPUT: I'd appreciate it if you could check whether chimeric antibody Ch164 (antibody, human IgG1, lambda, V domains shown) VH: QVQLKQSGPGLVQPSQSLSITCTVSGFSLTTFGVHWIRQSPGKGLEWLGVIWRRGGTDYNAAFMSRLSITKDNSRSHVFFKMTSLQTDDSAIYYCARDGGFDYWGQGTTLTVSS VL: QAVVTQESALTTSPGGTVILTCRSSIGAVTTSNYANWVQEKPDHLFTGLIGGTSNRAPGVPVRFSGSLIGDKAALTITGAQAEDDAMYFCALWYSTHYVFGGGTKVTVLG has koff smaller than 0.03 s⁻¹.
OUTPUT: 1

INPUT: Does this binder meet the criterion koff < 0.03 s⁻¹? Hu164-87wl (antibody, human IgG1, lambda, V domains shown) VH: EVQLQESGPGLVKPSQTLSLTCTVSGFSISTFGVHWIRQHPGKGLEWLGVIWRRGGTDYNAAFMSRLTISKDTSKNQVSFKLSSVTAADTAVYYCARDGGFDYWGQGTTVTVSS VL: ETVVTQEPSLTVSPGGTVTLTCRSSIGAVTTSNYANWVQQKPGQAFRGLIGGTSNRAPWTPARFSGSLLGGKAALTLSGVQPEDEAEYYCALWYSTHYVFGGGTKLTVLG
OUTPUT: 1

INPUT: Does the reported koff of the following binder sit strictly below 0.03 s⁻¹? Hu147-31wk (antibody, human IgG1, kappa, V domains shown) VH: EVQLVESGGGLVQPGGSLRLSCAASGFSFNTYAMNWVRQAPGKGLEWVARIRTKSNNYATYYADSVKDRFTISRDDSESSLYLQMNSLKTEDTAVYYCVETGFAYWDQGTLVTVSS VL: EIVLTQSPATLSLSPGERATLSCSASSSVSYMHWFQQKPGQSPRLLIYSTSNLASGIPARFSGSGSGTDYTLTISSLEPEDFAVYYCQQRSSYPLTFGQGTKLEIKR
OUTPUT: 0

INPUT: Is koff strictly under 0.03 s⁻¹ for the entry Hu95-41wk (antibody, human IgG1, kappa, V domains shown) VH: EVQLVQSGAEVKKPGASVKVSCKASGFTFTNYDIHWVKQAPGQRLEWIGLVYPYNGGTAYNQKFKDKATLTFDTSASTAYMELSSLRSEDTAVYYCARWGLIPGTTSYFDVWGQGTTVTVSS VL: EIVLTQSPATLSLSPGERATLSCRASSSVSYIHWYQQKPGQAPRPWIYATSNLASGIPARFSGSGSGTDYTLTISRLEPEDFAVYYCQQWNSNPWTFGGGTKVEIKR ?
OUTPUT: 0

INPUT: API: query returns whether the binder falls strictly under 0.03 s⁻¹ in koff. Query: Hu95-42wk (antibody, human IgG1, kappa, V domains shown) VH: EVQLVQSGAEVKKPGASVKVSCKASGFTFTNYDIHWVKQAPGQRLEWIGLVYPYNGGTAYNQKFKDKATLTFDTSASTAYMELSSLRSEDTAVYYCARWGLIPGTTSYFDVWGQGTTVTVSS VL: EIVLTQSPATLSLSPGERATLSCRASSSVSYIHWYQQKPGQSPRPWIYATSNLASGVPARFSGSGSGTSYTLTISRLEPEDFAVYYCQQWNSNPWTFGGGTKVEIKR
OUTPUT: 1

INPUT: In plain terms, does chimeric antibody Ch147 (antibody, human IgG1, kappa, V domains shown) VH: EVQLVESGGGLVQPEGSLKLSCAASGFSFNTYAMNWVRQAPGKGLEWVARIRTKSNNYATYYADSVKDRFTISRDDSESMLYLQMNNLKTEDTAMYYCVETGFAYWDQGTLVTVSA VL: QIVLTQSPAIMSASPGEKVTITCSASSSVSYMHWFQQKPGTSPKLWIYSTSNLASGVPARFSGSGSGTSYSLTISRMEAEDAATYYCQQRSSYPLTFGAGTKLELKR come in under 0.03 s⁻¹ for koff?
OUTPUT: 0

INPUT: Answer whether the binder Hu147-12wk (antibody, human IgG1, kappa, V domains shown) VH: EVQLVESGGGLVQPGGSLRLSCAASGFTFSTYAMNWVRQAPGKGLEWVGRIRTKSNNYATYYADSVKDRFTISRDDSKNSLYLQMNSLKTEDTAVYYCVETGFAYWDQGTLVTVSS VL: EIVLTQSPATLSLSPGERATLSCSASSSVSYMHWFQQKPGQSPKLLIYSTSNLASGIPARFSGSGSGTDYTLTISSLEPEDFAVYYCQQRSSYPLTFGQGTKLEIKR has koff strictly less than 0.03 s⁻¹
OUTPUT: 0

INPUT: Confirm or reject: koff of Hu164-77wl (antibody, human IgG1, lambda, V domains shown) VH: EVQLQESGPGLVKPSQTLSLTCTVSGFSISTFGVHWIRQHPGKGLEWIGVIWRRGGTDYNAAFMSRVTISKDTSKNQVSLKLSSVTAADTAVYYCARDGGFDYWGQGTTVTVSS VL: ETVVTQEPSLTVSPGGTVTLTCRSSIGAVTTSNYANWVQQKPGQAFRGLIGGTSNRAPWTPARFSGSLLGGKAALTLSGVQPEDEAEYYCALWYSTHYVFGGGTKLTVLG lies strictly below 0.03 s⁻¹
OUTPUT: 1

INPUT: Check if koff falls below 0.03 s⁻¹ for Hu147-32wk (antibody, human IgG1, kappa, V domains shown) VH: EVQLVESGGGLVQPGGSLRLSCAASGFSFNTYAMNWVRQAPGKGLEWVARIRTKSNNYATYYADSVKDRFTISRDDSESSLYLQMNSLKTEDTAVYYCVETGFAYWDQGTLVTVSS VL: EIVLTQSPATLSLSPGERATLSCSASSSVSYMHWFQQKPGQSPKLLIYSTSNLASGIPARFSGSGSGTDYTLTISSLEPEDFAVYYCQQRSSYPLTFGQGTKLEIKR .
OUTPUT: 0
